# PROTOCOL DESCRIPTION: Biodistribution study in LNCaP tumor-bearing mice (Th227 counted in organs)
# Assay type: in vivo, SCID mice
# CONDITION LABEL: 0.25 h; 1500 kBq/kg
# Th-227 in kidney annotations
Provide only the numeric value, understood in % ID Th-227/g organ.

Recorded results for 3 molecules are shown here.
• Cc1cc(C(=O)NCCN(CCCN(CCNC(=O)c2cc(C)n(CC(=O)O)c(=O)c2[O-])CCNC(=O)c2cc(C)n(CC(=O)NCC3CCC(C(=O)NC(Cc4cnc5ccccc5c4)C(=O)NCCCCC(NC(=O)NC(CCC(=O)O)C(=O)O)C(=O)O)CC3)c(=O)c2[O-])CCNC(=O)c2cc(C)n(CC(=O)NCC3CCC(C(=O)NC(Cc4cnc5ccccc5c4)C(=O)NCCCCC(NC(=O)NC(CCC(=O)O)C(=O)O)C(=O)O)CC3)c(=O)c2[O-])c([O-])c(=O)n1CC(=O)O.[227Th+4] (stereo not shown) [Example 22-C dimer-227Th] = 61.44
• O=C([O-])CN1CCN(CC(=O)[O-])CCN(CC(=O)NCC2CCC(C(=O)NC(Cc3ccc4ccccc4c3)C(=O)NCCCCC(NC(=O)NC(CCC(=O)O)C(=O)O)C(=O)O)CC2)CCN(CC(=O)[O-])CC1.[227Th+4] [Example 1-B-D-227Th] = 10.76
• O=C([O-])CN1CCN(CC(=O)[O-])CCN(CC(=O)NCC2CCC(C(=O)NC(Cc3ccc4ccccc4c3)C(=O)NCCCCC(NC(=O)NC(CCC(=O)O)C(=O)O)C(=O)O)CC2)CCN(CC(=O)[O-])CC1.[227Th+4] (stereo not shown) [Example 1-B-227Th] = 36.39

Could you now consider this next molecule?
*Q* Suppose we examine the molecule O=C([O-])CN1CCN(CC(=O)[O-])CCN(CC(=O)NCc2ccc(C(=O)N[C@@H](Cc3ccc4ccccc4n3)C(=O)NCCCC[C@H](NC(=O)N[C@@H](CCC(=O)O)C(=O)O)C(=O)O)nc2)CCN(CC(=O)[O-])CC1.[227Th+4] [Example 34-B-227Th] ; what Th-227 in kidney value has been reported?
*A* 62.53
